Biological target: DNA topoisomerase 1 (Homo sapiens)
Assay: In vitro activity against topoisomerase-1 mediated cleavage of supercoiled pBR322 plasmid DNA
Parameter: pEC50
Hey, just a heads up that pEC50 is the negative log base 10 of the concentration in molar.

Worked cases, answers included:
# Molecule, Numeric Result
records = [
    ("O=C(CO)NN1C(=O)c2c(c3c4cccc(O)c4n(C4OC(CO)C(O)C(O)C4O)c3c3[nH]c4c(O)cccc4c23)C1=O (centres undefined)", 5.55),
    ("O=C(O)c1ccc(NN2C(=O)c3c(c4c5cccc(O)c5n(C5OC(CO)C(O)C(O)C5O)c4c4[nH]c5c(O)cccc5c34)C2=O)cc1 (centres undefined)", 6.80),
    ("CCNN1C(=O)c2c(c3c4cccc(O)c4n(C4OC(CO)C(O)C(O)C4O)c3c3[nH]c4c(O)cccc4c23)C1=O (centres undefined)", 5.46),
]

# get_value(readout='pEC50', item= N#CCC(=O)NN1C(=O)c2c(c3c4cccc(O)c4n(C4OC(CO)C(O)C(O)C4O)c3c3[nH]c4c(O)cccc4c23)C1=O (centres undefined) ) 6.26

Now consider O=C1c2c(c3c4cccc(O)c4n(C4OC(CO)C(O)C(O)C4O)c3c3[nH]c4c(O)cccc4c23)C(=O)N1NC(CO)CO (centres undefined) . 6.24

----------
pIC50: −log10 of the molar value.
Reported pIC50 values, Epidermal growth factor receptor (Homo sapiens).

Illustrative cases are given below, each with its answer.
# Compound, Target Entity, Parameter, Result
records = [
    ("CC(=O)NN1C(=O)c2c(c3c4cccc(O)c4n(C4OC(CO)C(O)C(O)C4O)c3c3[nH]c4c(O)cccc4c23)C1=O (centres undefined)", "Epidermal growth factor receptor (Homo sapiens)", "pIC50", "< 3.70"),
    ("O=CNN1C(=O)c2c(c3c4cccc(O)c4n(C4OC(CO)C(O)C(O)C4O)c3c3[nH]c4c(O)cccc4c23)C1=O (centres undefined)", "Epidermal growth factor receptor (Homo sapiens)", "pIC50", "< 3.70"),
    ("O=C(NN1C(=O)c2c(c3c4cccc(O)c4n(C4OC(CO)C(O)C(O)C4O)c3c3[nH]c4c(O)cccc4c23)C1=O)c1ccccn1 (centres undefined)", "Epidermal growth factor receptor (Homo sapiens)", "pIC50", "< 3.70"),
]

Please give the measured pIC50 for this compound: O=C1c2c(c3c4cccc(O)c4n(C4OC(CO)C(O)C(O)C4O)c3c3[nH]c4c(O)cccc4c23)C(=O)N1NCC(O)CO (centres undefined) 3.74

----------
EC50 values by entry
Biological target: DNA topoisomerase 1 (Homo sapiens, UniProt P11387)
Sequence (P11387 whole entry): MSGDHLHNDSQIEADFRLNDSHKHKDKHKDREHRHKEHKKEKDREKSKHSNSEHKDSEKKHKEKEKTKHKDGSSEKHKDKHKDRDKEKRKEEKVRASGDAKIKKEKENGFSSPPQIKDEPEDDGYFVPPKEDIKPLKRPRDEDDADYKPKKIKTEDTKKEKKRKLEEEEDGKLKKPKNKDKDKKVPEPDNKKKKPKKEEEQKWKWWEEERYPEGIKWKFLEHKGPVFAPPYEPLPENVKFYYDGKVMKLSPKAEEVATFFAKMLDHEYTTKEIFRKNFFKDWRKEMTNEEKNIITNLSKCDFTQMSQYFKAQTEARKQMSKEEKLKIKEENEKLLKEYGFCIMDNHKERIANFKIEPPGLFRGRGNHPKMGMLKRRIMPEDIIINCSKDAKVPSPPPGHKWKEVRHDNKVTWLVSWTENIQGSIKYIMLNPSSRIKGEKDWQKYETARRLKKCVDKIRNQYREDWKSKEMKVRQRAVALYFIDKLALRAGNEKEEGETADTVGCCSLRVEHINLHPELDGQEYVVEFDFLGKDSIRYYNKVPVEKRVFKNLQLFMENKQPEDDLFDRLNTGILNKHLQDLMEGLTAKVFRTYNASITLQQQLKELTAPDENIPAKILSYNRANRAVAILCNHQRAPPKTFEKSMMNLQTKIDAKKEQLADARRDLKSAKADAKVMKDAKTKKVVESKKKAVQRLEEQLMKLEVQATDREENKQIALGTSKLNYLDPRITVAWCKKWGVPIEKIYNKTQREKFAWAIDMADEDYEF
Assay: In vitro activity against topoisomerase-1 mediated cleavage of supercoiled pBR322 plasmid DNA
Write the value in nM as a bare number.

Give the measured EC50 of O=C(Nc1ccccc1)NN1C(=O)c2c(c3c4cccc(O)c4n(C4OC(CO)C(O)C(O)C4O)c3c3[nH]c4c(O)cccc4c23)C1=O (centres undefined) . 250

Same question, CNN1C(=O)c2c(c3c4cccc(O)c4n(C4OC(CO)C(O)C(O)C4O)c3c3[nH]c4c(O)cccc4c23)C1=O (centres undefined) this time 350

Thanks! And CCCNN1C(=O)c2c(c3c4cccc(O)c4n(C4OC(CO)C(O)C(O)C4O)c3c3[nH]c4c(O)cccc4c23)C1=O (centres undefined) ? 1200
